Tested on: NCI-H1703
Assay: relative viability (nuclei count vs DMSO), 5 days (fraction); higher = more cells survive
Settings: first compound 0.8 µM
Mark each entry yes if its relative viability sits below 0.5, and no for all others.

- molecule: "O=c1[nH]c2ccccc2n1C1CCN(CCCC(c2ccc(F)cc2)c2ccc(F)cc2)CC1 [Pimozide] + Cc1nc(NC(=O)N2CCC[C@H]2C(N)=O)sc1-c1ccnc(C(C)(C)C(F)(F)F)c1 [Alpelisib] (partner 2 µM)"
  assigned.class: "yes"

For O=c1[nH]c2ccccc2n1C1CCN(CCCC(c2ccc(F)cc2)c2ccc(F)cc2)CC1 [Pimozide] + O=C(c1cc(Cc2n[nH]c(=O)c3ccccc23)ccc1F)N1CCN(C(=O)C2CC2)CC1 [Olaparib] (partner 8 µM) , is the recorded relative viability below the cut-off of 0.5? yes

I'd appreciate it if you could check whether Cc1cnc(-c2cnc(NCCNc3ccc(C#N)cn3)nc2-c2ccc(Cl)cc2Cl)[nH]1 + CC1(C)CCC(c2ccc(Cl)cc2)=C(CN2CCN(c3ccc(C(=O)NS(=O)(=O)c4ccc(N[C@H](CCN5CCOCC5)CSc5ccccc5)c(S(=O)(=O)C(F)(F)F)c4)cc3)CC2)C1 [Navitoclax] (partner 0.5 µM) has relative viability smaller than 0.5. no

Determine whether this molecule shows relative viability lower than 0.5 (ties excluded): Cc1cnc(-c2cnc(NCCNc3ccc(C#N)cn3)nc2-c2ccc(Cl)cc2Cl)[nH]1 + O=C(c1cc(Cc2n[nH]c(=O)c3ccccc23)ccc1F)N1CCN(C(=O)C2CC2)CC1 [Olaparib] (partner 8 µM) yes

Source of measurements: the supplement of paper PMC10307832
